The measured values listed here are drawn from patent US11006631B2.

Test system: foxtail, giant (giant foxtail, Setaria faberii)
Assay: Test A preemergence, foxtail, giant
Type: in vivo
Conditions: 125 g ai/ha, 0 to 100 scale
Excerpt: […]
Reported endpoint: Plant response rating, Foxtail, Giant

1) FC(F)c1cc(-c2ncccc2Oc2ncc(Cl)cn2)on1 = 80
2) FC(F)(F)c1cc(-c2ncccc2Oc2ncc(Cl)cn2)ccn1 = 90
3) Cc1cnn(-c2ncccc2Oc2ncc(Cl)cn2)c1 = 0

---

Tested on: pigweed (Amaranthus retroflexus)
Assay: Test A postemergence, pigweed
Assay type: in vivo
Details: 125 g ai/ha, 0 to 100 scale
Listing of recorded Plant response rating, Pigweed by entry.
Reported endpoint: Plant response rating, Pigweed

1) Fc1cnc(Oc2cccnc2-c2cc(C(F)F)no2)nc1 = 70
2) [O-][n+]1cccc(Oc2ncc(Cl)cn2)c1-c1cc(C(F)F)on1 = 70
3) Clc1cnc(Oc2cccnc2-n2cc(Br)cn2)nc1 = 90
4) Clc1ccc(-c2cccnc2Oc2ncc(Cl)cn2)nc1 = 30
5) Cc1cnn(-c2ncccc2Oc2ncc(Cl)cn2)c1 = 10
6) Cc1cnc(-n2ccc(C(F)(F)F)n2)c(Oc2ncc(Cl)cn2)c1 = 0
